Test system: H-9 cells
protocol.details: Kinetic growth of H-9 cells on feeders in PB12/RCCD media formulations (Integral, Px,max, μ) with Statistica effect/regression models
Type: cell-based, human
condition.set: PB12, level −1 to +1 (ranges Table 2), least square method
Recorded measurements of Effect on Px, max, one per entry
Give only the figure.

O=C(O)CC(O)(CC(=O)O)C(=O)O [Citric Acid, citric acid]; 0.0060
NCCO [Etan., ethanolamine]; −0.0055
NC(=O)CC[C@H](N)C(=O)O [Glut, glutamine]; −0.0088

Proceeding to the next molecule to report its Effect on Px, max.
Measured Effect on Px, max, O=[Se]([O-])[O-].[Na+].[Na+] [Selenite, sodium selenite] : 0.0029
